Cited source for all entries: patent US9751932B2

Target System: T1, human big-ET-1 (SEQ ID NO:434) (Homo sapiens, UniProt P05305)
T1 sequence (P05305 53-90 limits assumed): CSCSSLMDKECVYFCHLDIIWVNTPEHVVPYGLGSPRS
Method Summary: Surface plasmon resonance (Biacore) binding, mAb capture format, 37° C.
Test Parameters: analyte human big-ET-1, mAb capture
Test Readout: kd (s⁻¹)

1) H4H6317P: anti-big-ET-1 antibody, human IgG4 Fc; HCVR/LCVR SEQ ID NO: 130/138 (antibody, V domains shown, human IgG4 Fc) VH: QVQLVESGGGVVQPGRSLRLSCAASGFTFSSYGMHWVRQAPGKGLEWVAVLWYDGRNKYYADSVKGRFTISRDNSKNTLYLQMNSLRAEDTAVYYCARSYDAFDIWGQGTMVTVSS VL: DIQMTQSPSTLSASVGDRVTITCRASQSISSWLAWFQQGPGRAPKLLIYKASTLQSGVPSRFSGSGSGTEFTLTISSLQPDDFATYYCQQYRSYSPTFGQGTKVEIK: 0.000199
2) H2M6490N: anti-big-ET-1 antibody, mouse IgG2 Fc; HCVR/LCVR SEQ ID NO: 18/26 (antibody, V domains shown, mouse IgG2 Fc) VH: EVQLLESGGGLVQPGGSLRLSCAASGFTFSSYAMTWVRQAPGKGLECISAISGSGYSTYYADSMKGRFSISRDNSKNTLYLQMNRLRAEDTAVYYCTKGGRILEWLLPFDFWGQGTLVTVSS VL: DVVMTQSPLSLPVTLGQPASISCRSSQSLVYSDGNTYLIWFQQRPGQSPRRLIYKVSNRDSGVPDRFSGSGSGTDFTLIISRVEAEDVGLYYCMQGTHWPPTFGGGTKVEIK: 0.00399
